B1: AUP1 (parent)
chain: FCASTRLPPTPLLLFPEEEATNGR

variants of: B1; test: protein stability index of a GFP-peptide fusion (GPS, HEK-293T) (PSI 1-6); higher = more stable; conditions: c terminus: a fixed tail appended;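 also: lentivirally expressed fusions sorted by FACS into six bins by GFP to DsRed ratio, PSI derived from sequencing read proportions per bin multiplied by bin number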
property_name: protein stability index
Reply with the value as a number alone.

Below, 3 variants whose answers are already recorded.
[[record]]
monomer_sequence = "FCASTRLPPTPLLLDPEEEATNGR [F15D]"
property_name = "protein stability index"
meas_value = 3.62

[[record]]
monomer_sequence = "FCASTRLPPTPLLLFPEEEATNSR [G23S]"
property_name = "protein stability index"
meas_value = 2.94

[[record]]
monomer_sequence = "FCASTRLPPTPLLLFPEEEATNGC [R24C]"
property_name = "protein stability index"
meas_value = 2.72


Sample FCASTRLPPTPLLLFPEEEAQNGR [T21Q] — what was its protein stability index? 2.46

Sample FCASTRLPPTPLLLFPEMEATNGR [E18M] — what was its protein stability index? 1.94
